system: HaCat; assay: Cytotoxic Profiling of Annotated Libraries Using Quantitative High-Throughput Screening (AID 1296008); settings: Five cell lines viability, CellTiter-Glo ATP luminescence, 48-72 h; also: nearly all actives have a fitted effect of over 60% in size
Inconclusive results are not listed. Activity calls are given as the source filed them. Calls follow the shape of the dose curve; as a rule, active = well fitted inhibition curve with a large enough effect; inconclusive = small, poorly fitted or top-dose-only effect; inactive = flat fitted curve, though single readings scatter.
Outcomes: yes (active), no (inactive)

| Compound | Label Value |
| --- | --- |
| NCC1CCC(C(=O)O)CC1 (stereo unspecified) | no |
| C[C@@H](N)c1ccc(C(=O)Nc2ccnc3[nH]ccc23)cc1 | yes |
| CCc1cc(-c2n[nH]c(C)c2-c2ccc3c(c2)OCCO3)c(O)cc1O | yes |
| Nc1ccn([C@@H]2O[C@H](CO)[C@@H](O)[C@H]2O)c(=O)n1 | yes |
| O=C(Nc1ccc(OC(F)(F)F)cc1)c1sccc1NCc1ccnc2ccccc12 | no |
| Cc1ccccc1-n1c(Cn2nc(-c3cccc(O)c3)c3c(N)ncnc32)nc2cccc(C)c2c1=O | no |
| Cc1nc(C(=O)NCC(=O)O)c(O)c2ccc(Oc3ccccc3)cc12 | no |
| O=C(O)c1ccc(O)c2ncc(N3CCOCC3)cc12 | no |
| CN(C)c1nc(Cc2ccc(NC(=O)c3ccc(C(F)(F)F)cc3)cc2)nc(N(C)C)c1CC(=O)O | no |
| CC(C)(CO)[C@@H](O)C(=O)NCCC(=O)O | no |
| CN(C)CCN(Cc1ccc(Cl)cc1)c1ccccn1 | no |
| C[C@H](CCC(=O)O)[C@H]1CC[C@H]2[C@H]3[C@@H](CC[C@]12C)[C@@]1(C)CC[C@@H](O)C[C@H]1C[C@@H]3O | no |
| CCC(c1ccc(O)cc1)C(CC)c1ccc(O)cc1 (stereo unspecified) | no |
| CN(C)c1ccc(-c2nc3ncc(Cl)c(N4CCN(CC(=O)Nc5nccs5)CC4)c3[nH]2)cc1 | no |
| CCCCC[C@H](O)C=C[C@H]1[C@H](O)CC(=O)[C@H]1CC=CCCCC(=O)O | no |
| CN(CC=CC#CC(C)(C)C)Cc1cccc2ccccc12 | no |
| N=C1SC(=Cc2ccc(-c3ccc4c(c3)C(=O)NC4=O)o2)C(=O)N1c1ccc(Br)cc1 | no |
| CN1[C@H]2CC[C@H]1CC(OC(=O)c1c[nH]c3ccccc13)C2 (stereo partly specified) | no |
| COc1nccc(-c2c(-c3ccc(F)cc3)ncn2C2CCC(O)CC2)n1 (stereo unspecified) | no |
| O=C(Nc1cccc(Cl)c1)Nc1ncc(CCNc2ncnc3ccsc23)s1 | yes |
| COc1cc(N2CCN(C)CC2)ccc1Nc1nc(N)c(C(=O)c2c(Cl)cccc2Cl)s1 | no |

---

molecular target: Cytochrome P450 3A4 (Homo sapiens); experiment: qHTS Assay for Activators of Cytochrome P450 3A4 (AID 885); details: recombinant CYP3A4, Luciferin-PPXE luminescence, 60 min; series mostly up to 57.1 µM; also: nearly all actives have a fitted effect of over 65% in size
Active and inactive are the calls of the source. Calls follow the shape of the dose curve; as a rule, active = well fitted activation curve with a large enough effect; inconclusive = small, poorly fitted or top-dose-only effect; inactive = no such curve, though single readings can be large or run the other way.
Outcomes: 1 = active, -1 = inactive

| Compound | Label Value |
| --- | --- |
| Cc1cc(NC(=O)Nc2ccc(N(C)C)cc2)c2cc(F)cc(F)c2n1 | -1 |
| O=c1cc(-c2ccc(O)c(O)c2)oc2cc(O)cc(O)c12 | -1 |
| CN1C(=O)C(Cc2c[nH]c3ccccc23)NC1=S (stereo unspecified) | -1 |
| COC1CCC(C(=O)c2ccc3nc4c(cc3c2)CCCO4)CC1 (stereo unspecified) | 1 |
| CCCCC(C=O)NC(=O)C(CC(C)C)NC(=O)OCc1ccccc1 (stereo unspecified) | -1 |
| Cc1ccc2c(c1)C(=O)[C@]1(O)CCN(c3ccccc3)C1=N2 | -1 |
